# Target or system: DHFR-(RE)1 (DHFR fused to one HIV Tat-derived RE peptide) (UniProt P04608)
# Sequence: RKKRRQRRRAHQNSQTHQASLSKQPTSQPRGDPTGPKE
# Test name: EMSA
# Condition summary: apparent Kd; 10 mM Tris-HCl pH 8.0, 70 mM NaCl, 2 mM EDTA, 0.1% NP-40, 40 nM tRNA, 30 C
Observation type: Kd

Req: Hello, please tell me recorded Kd for this one: AAAAAACGAAGCUUGAUCCCGUUUGCCGGUCGAUCGCUUCG [(Apt)1 Tat aptamer]
Resp: < 24 nM

----------
# Target or system: DHFR-(RE)2 (DHFR fused to two tandem Tat-derived RE peptides) (UniProt P04608)
# Sequence: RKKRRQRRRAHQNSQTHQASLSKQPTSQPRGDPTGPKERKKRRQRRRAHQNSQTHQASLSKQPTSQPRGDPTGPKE
# Test name: EMSA
# Condition summary: apparent Kd; 10 mM Tris-HCl pH 8.0, 70 mM NaCl, 2 mM EDTA, 0.1% NP-40, 40 nM tRNA, 30 C
Observation type: Kd

Req: Answer with reported Kd of AAAAAACGAAGCUUGAUCCCGUUUGCCGGUCGAUCGCUUCGAAAAAACGAAGCUUGAUCCCGUUUGCCGGUCGAUCGCUUCG [(Apt)2 two tandem Tat aptamers via A6 linker]
Resp: < 0.2 nM
